Test: yeast display, Sf9 membrane polyspecificity reagent, FACS + sequencing; frameworks hold sequencing errors

[
  {
    "seq-text": "QVQLVESGGGLVQAGGSLRLICAASGYTFPYNVMGWYRQAQGKERELVAAITSSGGSTYYADSVKGRFTISRDNAKTTVYLQMNSLKPEDTAVYYCNASPSSSLFDYLGQGTQVTVSS",
    "polyreactivity (PSR sort gate)": "low polyreactivity"
  },
  {
    "seq-text": "QVQLVESGGGLVQAGGSLRLSCAASGSIFRINAMGWYRQAPGKERELVAAISTSGGTTYYADSVKGRFTISRDNAKNTVYLQMNSLKPEDTAVYYCAARRVTSPFGSDSWGQGTQVTVSS",
    "polyreactivity (PSR sort gate)": "low polyreactivity"
  },
  {
    "seq-text": "QVQHEESAGGLVQAGGSLRVSCAASGIIFYDYAMGWYRQAAGKERELVAAITSVGSTNYADSVKGRFTISRDYAKNTVYLQMISLKPDDTAVYYCDAEVYVPDYFQHIFDVEYEYWGQGTQVTVSS",
    "polyreactivity (PSR sort gate)": "low polyreactivity"
  },
  {
    "seq-text": "QVQLVESGGGLVQAGGSLRLSCAASGFTFGEYAMGWYRQEPGKERELVATISSGVGTNYADSVKGRFTISRDNAKNTVYLQMNSLKPVDTAVYYCNARGRGSDVRVYVDEGDYWGQGTQVTVSS",
    "polyreactivity (PSR sort gate)": "low polyreactivity"
  }
]
